TARGET: T1, human ACVR2A (human, UniProt P27037 20-135, limits assumed); further: test concentration or dose not given here
T1 construct: coated antigen of the initial ELISA; also called activin receptor, type II A
T1 sequence (P27037 20-135 limits assumed): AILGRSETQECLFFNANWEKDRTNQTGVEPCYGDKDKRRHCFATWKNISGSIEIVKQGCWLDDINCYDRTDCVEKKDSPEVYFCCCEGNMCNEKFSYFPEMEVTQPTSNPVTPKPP
ASSAY EXPLANATION: ELISA
RECORDED ENDPOINT: optical density (OD)
Respond numerically; units are OD and should not be typed.

Use these answered entries as a reference point.
[[record]]
binder = "371_H06 (antibody, V domains shown, Group III) VH: EVQLLESGGGLVQPGGSLRLSCAASGFTFDSYGMNWVRQAPGKGLEWVSGINYNGGYTSYADSVKGRFTISRDNSKNTLYLQMNSLRAEDTAVYYCARGANWHDTALDYWGQGTLVTVSS VL: DIQMTQSPSSLSASVGDRVTITCRASQSISSYLNWYQQKPGKAPKLVIYAVTSRASGVPSRFSGSGSGTDFTLTISSLQPEDFATYYCQQSYDLPLTFGGGTKVEIK"
recorded_endpoint = "optical density"
numeric_readout = 3.03

[[record]]
binder = "369_A07 (antibody, V domains shown, Group III) VH: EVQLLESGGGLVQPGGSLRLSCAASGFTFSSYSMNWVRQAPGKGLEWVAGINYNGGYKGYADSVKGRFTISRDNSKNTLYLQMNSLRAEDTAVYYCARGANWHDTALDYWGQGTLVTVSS VL: DIQMTQSPSSLSASVGDRVTITCRASQSILSYLNWYQQKPGKAPKLVIYAATSRASGVPSRFSGSGSGTDFTLTISSLQPEDFATYYCQQSYESPLTFGGGTKVEIK"
recorded_endpoint = "optical density"
numeric_readout = 3.55


Then this binder:
Query :: Supply reported optical density belonging to this binder: 371_C12 (antibody, V domains shown, Group III) VH: EVQLLESGGGLVQPGGSLRLSCAASGFTFSSYSMNWVRQAPGKGLEWVAGINYNSGYKSYADSVKGRFTISRDNSKNTLYLQMNSLRAEDTAVYYCARGANWHDTHLDYWGQGTLVTVSS VL: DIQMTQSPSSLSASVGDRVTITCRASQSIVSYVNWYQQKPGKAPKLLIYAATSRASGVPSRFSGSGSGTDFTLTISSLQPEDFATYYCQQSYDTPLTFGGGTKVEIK
Result :: 3.1

The origin of these recorded values is patent US20210380703A1.
